B1: Caulobacter ParB omega fusion; a variant is named by its letters at X, in order, B8GW30 (parent)
chain: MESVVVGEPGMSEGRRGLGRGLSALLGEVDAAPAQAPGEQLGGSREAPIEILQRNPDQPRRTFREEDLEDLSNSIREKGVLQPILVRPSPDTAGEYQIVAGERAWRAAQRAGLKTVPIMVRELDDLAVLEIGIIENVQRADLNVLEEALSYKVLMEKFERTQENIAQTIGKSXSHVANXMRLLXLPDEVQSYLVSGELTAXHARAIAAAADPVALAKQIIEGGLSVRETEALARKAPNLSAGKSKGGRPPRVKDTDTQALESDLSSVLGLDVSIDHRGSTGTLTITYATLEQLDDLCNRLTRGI

- Variants of: B1
- PROTOCOL NOTES: one-hybrid fitness for binding NBS DNA (the Noc-binding site; scaled: cognate 1, non-cognate 0); higher = stronger binding
- RUN CONDITIONS: with NBS DNA site
In all, about 81,000 sequences were measured (“one-hybrid fitness for binding NBS DNA”: median about -0.1, highest 2% from about 0.36 on). The entries come from a sample that favours the highest values as a whole.
EXPERIMENTAL READOUT: one-hybrid fitness for binding NBS DNA
// response body must contain only the number

Example entries and their recorded answers appear below.
1. QRAF 0.302
2. RRLA 0.584
3. RRQA 0.695

Turning now to a further variant:
Sure, the documented one-hybrid fitness for binding NBS DNA for `QRAP` is 0.264
